System: TK-10 renal
PROTOCOL NOTES: NCI tumour cell line growth inhibition, 48 h; in the data active = GI50 below about 0.43 µM; inactive = the rest
Outcome codes: true (1) = active, false (0) = inactive

molecule=S=C(NCCNC(=S)[S][Sn]([c]1ccccc1)([c]1ccccc1)[c]1ccccc1)[S][Sn]([c]1ccccc1)([c]1ccccc1)[c]1ccccc1 class="true (1)"
molecule="O=[N+]([O-])c1ccc(C2CC(c3ccccc3)=Nc3ccccc3S2)cc1 (stereo not given)" class="false (0)"
molecule=COc1cc2ncnc(Nc3cccc(Cl)c3F)c2cc1OC(=O)N1CCN(C)C[C@H]1C class="true (1)"
molecule=COc1cc(C(=O)N2CCN(c3ccccc3)CC2)c2ccccc2n1 class="true (1)"
molecule=N/C(=N/N=C/c1ccccc1)N/N=C\c1ccccc1 class="false (0)"

###

Test system: CAKI-1 renal
PROTOCOL NOTES: NCI tumour cell line growth inhibition, 48 h
EXPERIMENTAL ENDPOINT: TGI

molecule=CCNC(=O)Nc1ccc(Oc2ccnc3ccc4c(ccn4C)c23)cc1 experimental_endpoint=TGI measurement="0.961 µM"
molecule=Clc1ccc(CCn2cncn2)cc1 experimental_endpoint=TGI measurement="> 100 µM"
molecule="NC(=O)c1ncn(C2OC(CO)C(O)C2O)c1NC=O (stereo not drawn)" experimental_endpoint=TGI measurement="> 100 µM"
molecule=Cc1c(Cl)nc(Cl)nc1Cl experimental_endpoint=TGI measurement="0.695 µM"
molecule="O=C(O)C(C(=O)O)P(=S)(S)c1ccccc1 (stereo not drawn)" experimental_endpoint=TGI measurement="> 100 µM"
molecule="COc1ccc(-c2c3c(n(C4OC(COC(C)=O)C(OC(C)=O)C(OC(C)=O)C4OC(C)=O)c(=S)c2C#N)CCC3)cc1 (stereo not drawn)" experimental_endpoint=TGI measurement="> 100 µM"
molecule=CC1(C)CC[C@]2(C(=O)O)CC[C@]3(C)C(=CC[C@@H]4[C@@]5(C)C[C@H](O)[C@H](O)[C@@](C)(C(=O)O)[C@@H]5CC[C@]43C)[C@@H]2C1 experimental_endpoint=TGI measurement="> 100 µM"
molecule=O=[N+]([O-])c1ccc(C2=Nn3c(nnc3-c3ccc(Cl)cc3)SC2)o1 experimental_endpoint=TGI measurement="18.4 µM"
molecule="C#C/C=C\\CCCCCCCCCCCCCC/C=C\\CCCCC#CC(O)C#CCCCC/C=C\\CCCCCC/C=C/C(O)C#C (stereo not drawn)" experimental_endpoint=TGI measurement="18.1 µM"
molecule=COc1cc2oc(-c3ccc4c(c3)OCO4)c(OC)c(=O)c2c(OC)c1O experimental_endpoint=TGI measurement="> 100 µM"
molecule=COc1ccc2c(c1)CC[C@@H]1[C@@H]2CC[C@]2(C)c3c(cc(C(=O)O)c4sccc34)C[C@@H]12 experimental_endpoint=TGI measurement="63.7 µM"
molecule=COc1cc(-c2oc3c(OC)cc(OC)c(O)c3c(=O)c2OC)cc(OC)c1OC experimental_endpoint=TGI measurement="> 100 µM"
molecule=COc1ccc(Cn2cc3c(c2-c2ccccc2)CCc2cnoc2-3)cc1OC experimental_endpoint=TGI measurement="> 100 µM"
molecule=O=C1/C(=C/c2ccco2)N=C2Sc3c(nc[nH]c3=O)N12 experimental_endpoint=TGI measurement="> 100 µM"
molecule="CCN(CC)C1CCC(C2c3cc4c(cc3OC(N3CCOCC3)C2C)OCO4)CC1 (stereo not drawn)" experimental_endpoint=TGI measurement="> 100 µM"
molecule=COc1cc2c(cc1OCCCOS(C)(=O)=O)N=C[C@@H]1CCCN1C2=O experimental_endpoint=TGI measurement="> 100 µM"
molecule=O=c1/c(=C/c2ccc([N+](=O)[O-])o2)sc2n1[C@@H](c1ccc(Cl)cc1)C=C(c1cc(F)c(Cl)cc1Cl)N=2 experimental_endpoint=TGI measurement="> 100 µM"
molecule="CCOC(=O)C(N=C(c1ccccc1)c1ccccc1)N(C(=O)OC(C)(C)C)C(=O)OC(C)(C)C (stereo not drawn)" experimental_endpoint=TGI measurement="> 100 µM"
